- assay-system: BRM (Homo sapiens)
- Construct: Western Blot Screen of BRM Degradation in SW1573 Cells; endogenous in cells; host or cells: SW1573 cells
- test-summary: BRM degradation (Dmax and DC50) in SW1573 cells, Western blot screen / In-Cell Western screen
- Format: cell-based
- particulars: overnight (18-20 hours) treatment
- Method: To assess BRM degradation (Dmax and DC50) cells were seeded at 8000/well in 96-well black/clear-bottom plates in 180 μL DMEM growth media (containing 1% pen-strep, 1% HEPES and 10% FBS) per well. Plates were incubated overnight to allow adhesion. […] To read each plate TBS-T was removed, and each plate was inverted tapped on a paper towel. […]
Reported DC50 is given for each of the following molecules.

Examples with answers:
molecule	readout-kind	reported-value
CC(C)[C@@H](C(=O)N1C[C@H](O)C[C@H]1C(=O)N[C@@H](C)c1ccc(-c2ccnn2C)cc1)c1cc(N2CCC(OC3CCN(CC4CC(N5CCC([C@@H](C)n6cc(C#Cc7cc(-c8ccccc8O)nnc7N)cn6)CC5)C4)CC3)CC2)no1 (stereo partly shown)	DC50	< 2.5 nM
CC(C)[C@@H](C(=O)N1C[C@H](O)C[C@H]1C(=O)N[C@@H](C)c1ccc(-c2ccnn2C)cc1)c1cc(N2CCC(CN3CCC(CN4CCC5(CC4)CC(Oc4cc(N6C7CCC6CN(c6cc(-c8ccccc8O)nnc6N)C7)ccn4)C5)CC3)CC2)no1	DC50	< 2.5 nM
Cc1ncsc1-c1ccc([C@H](C)NC(=O)[C@@H]2C[C@@H](O)CN2C(=O)[C@H](c2cc(N3CCC(CN4CCC(O[C@H]5C[C@H](Oc6cc(N7C8CCC7CN(c7cc(-c9ccccc9O)nnc7N)C8)ccn6)C5)CC4)CC3)no2)C(C)C)c(N)c1	DC50	≥ 30 nM

Supply DC50 measured with BRM (Homo sapiens) for CC(C)[C@@H](C(=O)N1C[C@H](O)C[C@H]1C(=O)N[C@@H](C)c1ccc(C#N)cc1)c1cc(N2CCC(CN3CC[C@H](Oc4cc(N5C6CCC5CN(c5cc(-c7ccccc7O)nnc5N)C6)ccn4)C(F)(F)C3)CC2)no1 .
10 to 30 nM

* * *

- assay-system: BRM (Homo sapiens, UniProt P51531)
- Construct: Western Blot Screen of BRM Degradation in SW1573 Cells; endogenous in cells; host or cells: SW1573 cells
- Sequence (P51531 whole entry): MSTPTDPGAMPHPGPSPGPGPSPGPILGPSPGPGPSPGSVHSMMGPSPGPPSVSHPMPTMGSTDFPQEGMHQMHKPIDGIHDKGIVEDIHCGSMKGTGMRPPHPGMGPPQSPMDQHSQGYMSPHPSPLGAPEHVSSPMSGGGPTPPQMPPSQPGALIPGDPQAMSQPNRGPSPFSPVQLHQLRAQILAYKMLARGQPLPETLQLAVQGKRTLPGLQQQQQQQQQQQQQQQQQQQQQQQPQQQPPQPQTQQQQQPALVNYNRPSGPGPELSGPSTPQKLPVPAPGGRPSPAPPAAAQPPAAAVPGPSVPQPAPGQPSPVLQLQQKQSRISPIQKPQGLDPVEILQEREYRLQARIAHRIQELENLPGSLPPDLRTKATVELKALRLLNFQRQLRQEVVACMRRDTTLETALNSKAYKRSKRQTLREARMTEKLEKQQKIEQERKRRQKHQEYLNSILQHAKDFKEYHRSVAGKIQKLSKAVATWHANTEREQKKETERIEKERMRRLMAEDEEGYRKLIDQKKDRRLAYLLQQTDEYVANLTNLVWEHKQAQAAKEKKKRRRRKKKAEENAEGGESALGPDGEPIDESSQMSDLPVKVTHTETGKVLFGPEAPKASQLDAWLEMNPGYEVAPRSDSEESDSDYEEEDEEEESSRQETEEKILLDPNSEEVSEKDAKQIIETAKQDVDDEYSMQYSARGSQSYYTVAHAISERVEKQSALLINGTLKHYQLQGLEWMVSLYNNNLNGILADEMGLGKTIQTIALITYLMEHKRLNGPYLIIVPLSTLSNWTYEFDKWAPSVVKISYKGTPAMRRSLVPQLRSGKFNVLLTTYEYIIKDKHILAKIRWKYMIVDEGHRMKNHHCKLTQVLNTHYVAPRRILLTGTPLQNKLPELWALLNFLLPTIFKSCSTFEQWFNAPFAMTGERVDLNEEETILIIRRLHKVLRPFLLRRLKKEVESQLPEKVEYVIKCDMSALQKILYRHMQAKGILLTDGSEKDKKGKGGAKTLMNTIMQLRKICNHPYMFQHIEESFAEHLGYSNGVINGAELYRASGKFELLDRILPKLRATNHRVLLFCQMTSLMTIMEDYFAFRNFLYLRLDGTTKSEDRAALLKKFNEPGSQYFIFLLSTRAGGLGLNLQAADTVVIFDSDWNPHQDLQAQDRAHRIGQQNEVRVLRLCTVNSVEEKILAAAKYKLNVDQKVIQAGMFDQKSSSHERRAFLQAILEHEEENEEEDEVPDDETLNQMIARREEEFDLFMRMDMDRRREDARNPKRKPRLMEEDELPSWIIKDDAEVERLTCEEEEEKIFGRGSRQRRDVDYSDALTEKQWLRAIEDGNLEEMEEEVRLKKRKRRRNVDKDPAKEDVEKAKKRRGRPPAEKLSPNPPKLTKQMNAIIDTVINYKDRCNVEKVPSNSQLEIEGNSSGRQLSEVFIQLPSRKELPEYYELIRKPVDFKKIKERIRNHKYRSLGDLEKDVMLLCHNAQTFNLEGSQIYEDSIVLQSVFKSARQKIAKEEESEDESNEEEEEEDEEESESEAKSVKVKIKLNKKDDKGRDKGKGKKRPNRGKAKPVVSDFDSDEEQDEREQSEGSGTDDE
- test-summary: BRM degradation (Dmax and DC50) in SW1573 cells, Western blot screen / In-Cell Western screen
- Type: cell-based
- particulars: overnight (18-20 hours) treatment
readout-kind: DC50

Record excerpt, results attached:
compound	assay-system	readout-kind	reported-value
CC(C)[C@H](C(=O)N1C[C@H](O)C[C@H]1C(=O)N[C@@H](C)c1ccc(-c2ccnn2C)cc1)c1cc(N2CCC(OC3CCN(CC4CC(N5CCC([C@H](C)n6cc(C#Cc7cc(-c8ccccc8O)nnc7N)cn6)CC5)C4)CC3)CC2)no1 (some centres unmarked)	BRM (Homo sapiens, UniProt P51531)	DC50	≥ 30 nM
CC(C)[C@H](C(=O)N1C[C@H](O)C[C@H]1C(=O)N[C@@H](C)c1ccc(C#N)cc1)c1cc(N2CCC(OCCN3CCC(Oc4cc(N5C6CCC5CN(c5cc(-c7ccccc7O)nnc5N)C6)ccn4)CC3)CC2)no1	BRM (Homo sapiens, UniProt P51531)	DC50	≥ 30 nM
Cc1ncsc1-c1ccc([C@H](C)NC(=O)[C@@H]2C[C@@H](O)CN2C(=O)[C@@H](c2cc(N3CCC(CN4CCC5(CC4)CC(N4CCO[C@@H](CNC6CCN(c7cc(-c8ccccc8O)nnc7N)CC6)C4)C5)CC3)no2)C(C)C)cc1	BRM (Homo sapiens, UniProt P51531)	DC50	< 2.5 nM

For the compound Cc1ncsc1-c1ccc([C@H](C)NC(=O)[C@@H]2C[C@@H](O)CN2C(=O)[C@@H](c2cc(OCCOC(=O)N3CCC(O[C@H]4C[C@H](Oc5cc(N6C7CCC6CN(c6cc(-c8ccccc8O)nnc6N)C7)ccn5)C4)CC3)no2)C(C)C)cc1 , give its measured DC50 value.
≥ 30 nM

Hello, please tell me recorded DC50 for this one: Cc1ncsc1-c1ccc([C@H](C)NC(=O)C2C[C@@H](O)CN2C(=O)[C@@H](c2cc(N3CCC(CN4CC[C@@H](Oc5cc(N6C7CCC6CN(c6cc(-c8ccccc8O)nnc6N)C7)ccn5)[C@@H](F)C4)CC3)no2)C(C)C)cc1 (stereo in doubt)
< 2.5 nM
